target: Dual specificity protein phosphatase 6 (Homo sapiens) (UniProt Q16828); test: DUSP6 inhibitors restoring Erk phosphorylation by chemical complementation, primary imaging in DUSP6-transfected HeLa (AID 609); conditions: HeLa MKP-3 transfected, phospho-Erk imaging KS statistic; at 10 µM; stronger effect = higher value; cells stimulated with TPA for 15 min;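 also: phospho-Erk level distribution per well compared with pooled transfected vehicle control wells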
Sequence (Q16828 whole entry, looked up): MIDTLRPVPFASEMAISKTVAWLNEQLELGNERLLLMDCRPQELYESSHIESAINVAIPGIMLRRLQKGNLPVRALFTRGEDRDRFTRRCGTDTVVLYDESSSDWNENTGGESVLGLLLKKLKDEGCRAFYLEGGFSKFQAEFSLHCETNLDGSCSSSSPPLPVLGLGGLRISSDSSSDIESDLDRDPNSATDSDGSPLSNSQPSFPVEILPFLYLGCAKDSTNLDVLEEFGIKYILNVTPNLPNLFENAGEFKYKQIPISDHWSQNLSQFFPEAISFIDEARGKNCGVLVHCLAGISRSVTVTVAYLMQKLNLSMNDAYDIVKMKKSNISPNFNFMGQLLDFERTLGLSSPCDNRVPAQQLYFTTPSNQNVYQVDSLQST
Listed here: items and their measured inhibition.
Answer in %, number only, no unit symbol.

Examples with answers:
molecule: C[C@@H]1C[C@H](Nc2ccccc2)c2ccccc2N1C(=O)c1cccnc1
systemUnderTest: Dual specificity protein phosphatase 6 (Homo sapiens) (UniProt Q16828)
recordedValue: 25.7
--
molecule: N#CC1=C(SCc2ccccc2)NC2=C(C(=O)CCC2)C1c1ccc2c(c1)OCO2 (stereo not given)
systemUnderTest: Dual specificity protein phosphatase 6 (Homo sapiens) (UniProt Q16828)
recordedValue: -4.27
--
molecule: C[C@@H]1C[C@H]2[C@@H]3C[C@H](F)C4=CC(=O)C=C[C@]4(C)[C@@]3(F)[C@@H](O)C[C@]2(C)[C@@]1(O)C(=O)CO
systemUnderTest: Dual specificity protein phosphatase 6 (Homo sapiens) (UniProt Q16828)
recordedValue: 9.37
--
molecule: CCOC(=O)c1ccc(N2CC(O)=C(c3nc4ccccc4c(=O)[nH]3)C2=N)cc1
systemUnderTest: Dual specificity protein phosphatase 6 (Homo sapiens) (UniProt Q16828)
recordedValue: -13.3
--
molecule: OCCN1CCN(CCCN2c3ccccc3Sc3ccc(Cl)cc32)CC1
systemUnderTest: Dual specificity protein phosphatase 6 (Homo sapiens) (UniProt Q16828)
recordedValue: 3.45

The molecule identified as CCCCN(CCCC)c1nc2ccccc2nc1C(C#N)C(=O)NCCCOC (stereo not given) registered its inhibition at -5.89

For COc1ccc(C2CC(C(F)(F)F)n3ncc(C(=O)NCC4CCCO4)c3N2)cc1OC (stereo not given) the molecule record lists inhibition as 3.66

// sample Cc1nnc2n(Cc3ccccc3)c(=O)c3c4c(sc3n12)COC(C(C)C)C4 (stereo not given) , its inhibition was -1.12

Entry C[C@H]1C[C@@H]2[C@H]([C@@H](O)C[C@@]3(C)[C@H]2CC[C@]3(O)C(=O)CO)[C@@]2(C)C=CC(=O)C=C12 ; inhibition = 7.39

Briefly, inhibition measured for CCOC(=O)c1ccc(N=Cc2nc(-c3ccccc3)oc2OC(C)=O)cc1 : 11.3

Where these numbers come from: PubChem BioAssay
